Taken from the NIST ThermoML archive (doi:10.1021/je200434a).

Items are presented alongside their recorded mass density.
Conditions: 340.15 K; 101.33 kPa; Liquid; Vibrating tube method
Numbers after ± are expanded uncertainties.

# molecule, mass density
data = [
    ("CCCCCCOS(=O)(=O)[O-].CC[n+]1ccn(C)c1 [3-ethyl-1-methyl-1H-imidazolium hexyl sulfate]", "1102.77 ± 1.1 kg/m3"),
    ("CCn1cc[n+](C)c1.COS(=O)(=O)[O-] [1-ethyl-3-methylimidazolium methylsulfate]", "1257.78 ± 0.51 kg/m3"),
    ("CCCCOS(=O)(=O)[O-].CC[n+]1ccn(C)c1 [3-ethyl-1-methylimidazolium butyl sulfate]", "1148.3 ± 1.1 kg/m3"),
    ("CCCCCCCCOS(=O)(=O)[O-].CCn1cc[n+](C)c1 [1-ethyl-3-methylimidazolium octyl sulfate]", "1068.07 ± 0.98 kg/m3"),
    ("CCn1cc[n+](C)c1.O=S(=O)([O-])O [1-ethyl-3-methylimidazolium hydrogen sulfate]", "1340.35 ± 0.56 kg/m3"),
]

---

Items are presented alongside their recorded viscosity.
Details: 343.15 K; 101.33 kPa; Liquid; Concentric cylinders viscometry

# compound, unit_string, viscosity
measured = [
    ("CCn1cc[n+](C)c1.COS(=O)(=O)[O-] [1-ethyl-3-methylimidazolium methylsulfate]", "mPa·s", 17.3),
    ("CCCCCCCCOS(=O)(=O)[O-].CCn1cc[n+](C)c1 [1-ethyl-3-methylimidazolium octyl sulfate]", "mPa·s", 61.4),
    ("CCCCOS(=O)(=O)[O-].CC[n+]1ccn(C)c1 [3-ethyl-1-methylimidazolium butyl sulfate]", "mPa·s", 27.7),
    ("CCCCCCOS(=O)(=O)[O-].CC[n+]1ccn(C)c1 [3-ethyl-1-methyl-1H-imidazolium hexyl sulfate]", "mPa·s", 39.6),
    ("CCn1cc[n+](C)c1.O=S(=O)([O-])O [1-ethyl-3-methylimidazolium hydrogen sulfate]", "mPa·s", 146.7),
]

---

Details: 300.15 K; 101.33 kPa; Liquid; Vibrating tube method
result_type: mass density (kg/m3)

# compound, result_type, numeric_value
records = [
    ("CCn1cc[n+](C)c1.COS(=O)(=O)[O-] [1-ethyl-3-methylimidazolium methylsulfate]", "mass density", 1284.64),
    ("CCCCCCCCOS(=O)(=O)[O-].CCn1cc[n+](C)c1 [1-ethyl-3-methylimidazolium octyl sulfate]", "mass density", 1094.32),
    ("CCn1cc[n+](C)c1.O=S(=O)([O-])O [1-ethyl-3-methylimidazolium hydrogen sulfate]", "mass density", 1364.53),
    ("CCCCOS(=O)(=O)[O-].CC[n+]1ccn(C)c1 [3-ethyl-1-methylimidazolium butyl sulfate]", "mass density", 1174.87),
    ("CCCCCCOS(=O)(=O)[O-].CC[n+]1ccn(C)c1 [3-ethyl-1-methyl-1H-imidazolium hexyl sulfate]", "mass density", 1129.07),
]

---

Conditions: 373.15 K; 101.33 kPa; Liquid; Concentric cylinders viscometry

# molecule, unit_string, viscosity
measured = [
    ("CCCCOS(=O)(=O)[O-].CC[n+]1ccn(C)c1 [3-ethyl-1-methylimidazolium butyl sulfate]", "mPa·s", 12.6),
    ("CCCCCCOS(=O)(=O)[O-].CC[n+]1ccn(C)c1 [3-ethyl-1-methyl-1H-imidazolium hexyl sulfate]", "mPa·s", 16.7),
    ("CCn1cc[n+](C)c1.COS(=O)(=O)[O-] [1-ethyl-3-methylimidazolium methylsulfate]", "mPa·s", 9),
    ("CCn1cc[n+](C)c1.O=S(=O)([O-])O [1-ethyl-3-methylimidazolium hydrogen sulfate]", "mPa·s", 53.4),
    ("CCCCCCCCOS(=O)(=O)[O-].CCn1cc[n+](C)c1 [1-ethyl-3-methylimidazolium octyl sulfate]", "mPa·s", 23.5),
]
